Assay: Unbound fraction / protein binding of FLU in pooled plasma, alone and with a second drug (ultrafiltration, LC-MS/MS)
Settings: human, plasma, %Unbound, pooled plasma; FLU 0.2 µg/mL, alone
measurement-label: fraction unbound at 30 min, 0.2 µg/mL
Could you respond with only the numeric value?

Please fill in: fraction unbound at 30 min, 0.2 µg/mL reported for Cc1onc(-c2c(F)cccc2Cl)c1C(=O)N[C@@H]1C(=O)N2[C@@H]1SC(C)(C)[C@@H]2C(=O)O = 0.0066

---

Biological target: HSA (Homo sapiens, UniProt P02768)
Sequence (P02768 25-609): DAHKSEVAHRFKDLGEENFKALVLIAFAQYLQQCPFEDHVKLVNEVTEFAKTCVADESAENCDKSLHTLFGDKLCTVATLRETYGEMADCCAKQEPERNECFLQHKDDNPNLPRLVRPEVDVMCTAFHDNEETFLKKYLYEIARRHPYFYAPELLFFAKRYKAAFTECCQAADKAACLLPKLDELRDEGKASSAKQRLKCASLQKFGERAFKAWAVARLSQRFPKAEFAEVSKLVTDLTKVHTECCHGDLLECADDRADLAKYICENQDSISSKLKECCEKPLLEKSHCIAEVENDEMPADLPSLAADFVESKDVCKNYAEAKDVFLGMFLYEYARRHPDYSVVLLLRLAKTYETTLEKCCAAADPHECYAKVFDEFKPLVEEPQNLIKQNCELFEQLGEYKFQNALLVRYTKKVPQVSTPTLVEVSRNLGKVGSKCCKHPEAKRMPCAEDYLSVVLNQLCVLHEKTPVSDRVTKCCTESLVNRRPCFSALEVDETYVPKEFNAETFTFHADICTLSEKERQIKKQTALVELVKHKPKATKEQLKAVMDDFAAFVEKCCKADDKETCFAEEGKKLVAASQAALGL
Experiment: Binding of FLU to HSA solutions (40 and 25 g/L), alone and with anticancer agents (ultrafiltration, LC-MS/MS)
Settings: human
measurement-label: fraction unbound at 30 min

Entry under test: Cc1onc(-c2c(F)cccc2Cl)c1C(=O)N[C@@H]1C(=O)N2[C@@H]1SC(C)(C)[C@@H]2C(=O)O . Its fraction unbound at 30 min was 0.0561 to 0.0602

Reference source for all entries: paper PMC7345279
